test system: 786-O (renal cell carcinoma); experiment: Cell viability (Alamar Blue), 24-hour 2D viability, 786-O cells; format: cell-based, human; conditions: Homo sapiens, 786-0, 24 h, 786-0 cells, 10% FBS, 24-hour 2D viability; read-out: EC50 (nM) 786-0 10% FBS
Parameter: EC50. Scope: all listed entries.
Answer in nM, number only, no unit symbol.

C#Cc1nc(C(=O)N2[C@@H](CCCC)Cc3cc(OC)ccc3[C@@H]2c2ccc(S(=O)(=O)N(C)C3CCC3)cc2)cs1 [Compound 21a] | 91.5
C#Cc1nc(C(=O)N2[C@@H](CCCC)Cc3c([nH]c4ccccc34)[C@@H]2c2ccc(NC3CCC3)cc2)cs1 | 43.3
C#Cc1nc(C(=O)N2[C@@H](CCCC)Cc3cc(OC)ccc3[C@@H]2c2ccc(C(=O)NC3CCC3)cc2)cs1 [Compound 16a] | 85.4

Query: Endpoint output: EC50 of C#Cc1nc(C(=O)N2C(c3ccc4ncccc4c3)c3ccc(OC)cc3C[C@@H]2CCCC)cs1 (stereo partly drawn) . Value?
Response: 70.2

Query: Try C#Cc1nc(C(=O)N2[C@@H](CCCC)Cc3cc(OC)ccc3[C@@H]2c2ccc(S(=O)(=O)NC3CCC3)nc2)cs1 [Compound 15a] next.
Response: 73.1

Query: Try C#Cc1nc(C(=O)N2[C@@H](CCCC)Cc3c([nH]c4ccccc34)[C@@H]2c2ccc(NC34CC5CC(CC(C5)C3)C4)cc2)cs1 [Compound 11a] next.
Response: 78.6

---

system: 786-O (renal cell carcinoma); assay: Cell viability (Alamar Blue), 24-hour 2D viability, 786-O cells; assay type: cell-based, human; conditions: 786-0 cells, 10% FBS, 24-hour 2D viability; read-out: EC50 (nM) 786-0 10% FBS
Parameter: EC50. Scope: all listed entries.
Answer in nM, number only, no unit symbol.

C#Cc1nc(C(=O)N2C(c3ccc(F)cn3)c3[nH]c4ccccc4c3C[C@@H]2c2nc(C)no2)cs1 (single isomer, unassigned) [Compound 10aB] | 380

Now examine the next entry.
Query: Endpoint output: EC50 of C#Cc1nc(C(=O)N2C(c3ccc(F)cn3)c3[nH]c4ccccc4c3C[C@@H]2c2nc(C)no2)cs1 (single isomer, unassigned) [Compound 10aA] . Value?
Response: 118

---

system: 786-O (renal cell carcinoma); experiment: Cell viability (Alamar Blue), 24-hour 2D viability, 786-O cells; assay type: cell-based, human; conditions: Homo sapiens, 786-0, 24 h, 786-0 cells, 10% FBS, 24-hour 2D viability; read-out: EC50 (nM) 786-0 10% FBS
RECORDED METRIC: log10(EC50) (log10 of the value in nM)
// stored as log10 of EC50 expressed in nM

Use the examples below as a reference point.
C#Cc1nc(C(=O)N2[C@@H](CCCC)Cc3cc(OC[C@H]4CCCN4C)ccc3[C@@H]2c2ccc(NC34CC5CC(CC(C5)C3)C4)cc2)cs1 [Compound 13a] | 1.83
C#Cc1nc(C(=O)N2[C@@H](CCCC)Cc3cc(OC[C@@H]4CCCN4)ccc3[C@@H]2c2ccc(NC34CC5CC(CC(C5)C3)C4)cc2)cs1 | 1.69
C#Cc1nc(C(=O)N2[C@@H](CCCC)Cc3c([nH]c4ccc(CCCO)cc34)[C@@H]2c2ccc(NC34CC5CC(CC(C5)C3)C4)cc2)cs1 | 1.20

Query: Provide the documented log10(EC50) with 786-O (renal cell carcinoma) as the system for C#Cc1ncc(C(=O)N2[C@@H](CCCC)Cc3cc(OC)ccc3[C@@H]2c2ccc(NC34CC5CC(CC(C5)C3)C4)cc2)s1 [Compound 23a]
Response: 1.32

Query: Try C#Cc1nc(C(=O)N2[C@@H](CCCC)Cc3cc(OC)ccc3[C@@H]2c2ccc(C(=O)NC3CCC3)cn2)cs1 [Compound 18a] next.
Response: 1.76

Query: Try C#Cc1nc(C(=O)N2[C@@H](CCCC)Cc3c([nH]c4ccccc34)C23CCN(C)CC3)cs1 [Compound 22a] next.
Response: 1.31

Query: Try C#Cc1nc(C(=O)N2[C@@H](CCCC)Cc3cc(OC)ccc3[C@@H]2c2ccc(C(=O)NC3CCC3)nc2)cs1 [Compound 19a] next.
Response: 1.60

Query: Try C#Cc1nc(C(=O)N2[C@@H](CCCC)Cc3cc(OC)ccc3[C@@H]2c2ccc(NC(=O)C3CCC3)cc2)cs1 [Compound 17a] next.
Response: 1.63

Query: Try C#Cc1nc(C(=O)N2[C@@H](CCCC)Cc3cc(NC(=O)[C@H]4CCCN4C)ccc3[C@@H]2c2ccc(NC34CC5CC(CC(C5)C3)C4)cc2)cs1 next.
Response: 2.59

Query: Try C#Cc1nccc(C(=O)N2[C@@H](CCCC)Cc3cc(OC)ccc3[C@@H]2c2ccc(NC34CC5CC(CC(C5)C3)C4)cc2)n1 [Compound 28a] next.
Response: 1.65
